molecular target: Peroxisome proliferator-activated receptor alpha (Mus musculus) (UniProt P23204); assay: Efficacy against murine PPARalpha relative to Wy-14,643
Sequence (P23204 whole entry): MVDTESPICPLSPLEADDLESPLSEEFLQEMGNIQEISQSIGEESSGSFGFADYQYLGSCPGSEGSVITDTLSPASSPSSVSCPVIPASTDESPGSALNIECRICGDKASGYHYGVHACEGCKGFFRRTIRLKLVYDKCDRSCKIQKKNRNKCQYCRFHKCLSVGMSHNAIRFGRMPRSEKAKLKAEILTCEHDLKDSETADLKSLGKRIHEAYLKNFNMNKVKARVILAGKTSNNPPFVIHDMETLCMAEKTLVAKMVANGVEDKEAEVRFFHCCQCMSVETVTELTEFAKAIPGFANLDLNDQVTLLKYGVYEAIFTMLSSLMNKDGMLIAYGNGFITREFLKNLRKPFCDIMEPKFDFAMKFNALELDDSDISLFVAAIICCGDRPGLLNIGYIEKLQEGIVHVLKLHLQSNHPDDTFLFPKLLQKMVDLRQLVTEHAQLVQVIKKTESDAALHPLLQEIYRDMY
Mark YES for reported Efficacy of 100 or greater; mark NO for anything smaller.

Use these answered entries as a reference point.
[
  {
    "MOLECULE": "O=C(O)[C@H](Cc1ccccc1)Oc1ccc(Cl)cc1",
    "GROUP LABEL": "NO"
  },
  {
    "MOLECULE": "CC(C)(Oc1ccc(Cl)cc1)C(=O)O [CLOFIBRIC ACID]",
    "GROUP LABEL": "NO"
  },
  {
    "MOLECULE": "O=C(O)[C@H](Cc1ccccc1)Oc1ccc(-c2cccs2)cc1",
    "GROUP LABEL": "NO"
  },
  {
    "MOLECULE": "O=C(O)[C@H](Cc1ccccc1)Oc1ccc(C(F)(F)F)cc1",
    "GROUP LABEL": "YES"
  }
]

## Input Determine whether this molecule has Efficacy no lower than 100: `CCc1ccc(O[C@@H](Cc2ccccc2)C(=O)O)cc1`
## Output YES

====

Values of EC50 reported for Peroxisome proliferator-activated receptor gamma (Homo sapiens) appear below.
Numbers only; they are read as µM.

Some molecules with recorded EC50:
[
  {
    "CHEMICAL SMILES": "O=C(O)[C@H](Cc1ccccc1)Oc1ccc(C(F)(F)F)cc1",
    "STUDY TARGET": "Peroxisome proliferator-activated receptor gamma (Homo sapiens)",
    "EC50 / µM": 0.9
  },
  {
    "CHEMICAL SMILES": "O=C(O)[C@H](Cc1ccccc1)Oc1ccc(Cl)cc1",
    "STUDY TARGET": "Peroxisome proliferator-activated receptor gamma (Homo sapiens)",
    "EC50 / µM": 2.7
  }
]

Proceeding to the next molecule to report its EC50.
## Input I'd like to know its EC50. The molecule in question is `O=C(O)[C@H](Cc1ccccc1)Oc1ccc(CO)cc1`
## Output 25.7

====

target: Peroxisome proliferator-activated receptor alpha (Homo sapiens); assay: Efficacy against human PPARalpha expressed in HepG2 cells relative to Wy-14,643; format: cell-based
MEASURE NAME: Efficacy

Study these solved cases before continuing.
[
  {
    "MOLECULE": "CCC[C@@H](Oc1ccc2ccccc2c1)C(=O)O",
    "Efficacy": 10.5
  },
  {
    "MOLECULE": "O=C(O)[C@H](Cc1ccccc1)Oc1ccc(Cl)cc1",
    "Efficacy": 99.4
  },
  {
    "MOLECULE": "O=C(O)[C@H](Cc1ccccc1)Oc1ccc2ccccc2c1",
    "Efficacy": 130
  },
  {
    "MOLECULE": "O=C(O)[C@H](Cc1ccccc1)Oc1ccc(CO)cc1",
    "Efficacy": 38.2
  }
]

## Input Could you share what Efficacy was measured for `CC(=O)c1ccc(O[C@@H](Cc2ccccc2)C(=O)O)cc1` , tested on Peroxisome proliferator-activated receptor alpha (Homo sapiens)?
## Output 68.3

## Input Recall the recorded Efficacy for `COc1ccc(O[C@@H](Cc2ccccc2)C(=O)O)cc1` with Peroxisome proliferator-activated receptor alpha (Homo sapiens) and state it.
## Output 80.7

## Input Hi! What's the reported Efficacy for `CCc1ccc(O[C@@H](Cc2ccccc2)C(=O)O)cc1` on Peroxisome proliferator-activated receptor alpha (Homo sapiens)?
## Output 114

## Input Efficacy of Cc1cccc(Nc2cc(Cl)nc(SCC(=O)O)n2)c1C [PIRINIXIC ACID] on Peroxisome proliferator-activated receptor alpha (Homo sapiens)?
## Output 100

====

Hi! I'm sharing some EC50 results obtained with Peroxisome proliferator-activated receptor gamma (Homo sapiens).
Sequence (P37231 whole entry): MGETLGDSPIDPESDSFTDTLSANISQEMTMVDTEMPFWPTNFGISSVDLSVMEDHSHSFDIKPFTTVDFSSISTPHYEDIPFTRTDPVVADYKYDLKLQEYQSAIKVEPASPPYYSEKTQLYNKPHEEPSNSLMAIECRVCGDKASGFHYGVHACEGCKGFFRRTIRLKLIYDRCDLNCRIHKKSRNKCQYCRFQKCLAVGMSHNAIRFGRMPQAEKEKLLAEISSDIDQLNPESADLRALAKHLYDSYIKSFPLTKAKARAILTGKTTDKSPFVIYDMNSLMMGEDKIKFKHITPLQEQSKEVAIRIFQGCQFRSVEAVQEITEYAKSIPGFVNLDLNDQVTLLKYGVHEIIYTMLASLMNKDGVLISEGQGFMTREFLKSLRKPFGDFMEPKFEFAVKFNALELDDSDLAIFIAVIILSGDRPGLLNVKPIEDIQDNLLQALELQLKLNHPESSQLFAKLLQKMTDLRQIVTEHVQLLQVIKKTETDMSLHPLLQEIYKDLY
Numeric answer only, unit µM assumed.

A selection of reference data follows.
[
  {
    "CHEMICAL SMILES": "CCC[C@@H](Oc1ccc2ccccc2c1)C(=O)O",
    "STUDY TARGET": "Peroxisome proliferator-activated receptor gamma (Homo sapiens)",
    "SCALE UNIT": "µM",
    "EC50": 12.5
  },
  {
    "CHEMICAL SMILES": "O=C(O)[C@H](Cc1ccccc1)Oc1ccc(-c2cccs2)cc1",
    "STUDY TARGET": "Peroxisome proliferator-activated receptor gamma (Homo sapiens)",
    "SCALE UNIT": "µM",
    "EC50": 1.6
  },
  {
    "CHEMICAL SMILES": "CCC[C@H](Oc1ccc2ccccc2c1)C(=O)O",
    "STUDY TARGET": "Peroxisome proliferator-activated receptor gamma (Homo sapiens)",
    "SCALE UNIT": "µM",
    "EC50": 7.2
  },
  {
    "CHEMICAL SMILES": "O=C(O)[C@@H](Cc1ccccc1)Oc1ccc(Cl)cc1",
    "STUDY TARGET": "Peroxisome proliferator-activated receptor gamma (Homo sapiens)",
    "SCALE UNIT": "µM",
    "EC50": 10.5
  }
]

## Input What reported EC50 corresponds to `CC(=O)c1ccc(O[C@@H](Cc2ccccc2)C(=O)O)cc1` on Peroxisome proliferator-activated receptor gamma (Homo sapiens)?
## Output 12.4
